molecular target: O-acyltransferase (Oryctolagus cuniculus, UniProt G1SFD9); test: In vitro inhibition of acyl coenzyme A:cholesterol acyltransferase (ACAT) from rabbit intestinal microsomes
Sequence (G1SFD9 1-524): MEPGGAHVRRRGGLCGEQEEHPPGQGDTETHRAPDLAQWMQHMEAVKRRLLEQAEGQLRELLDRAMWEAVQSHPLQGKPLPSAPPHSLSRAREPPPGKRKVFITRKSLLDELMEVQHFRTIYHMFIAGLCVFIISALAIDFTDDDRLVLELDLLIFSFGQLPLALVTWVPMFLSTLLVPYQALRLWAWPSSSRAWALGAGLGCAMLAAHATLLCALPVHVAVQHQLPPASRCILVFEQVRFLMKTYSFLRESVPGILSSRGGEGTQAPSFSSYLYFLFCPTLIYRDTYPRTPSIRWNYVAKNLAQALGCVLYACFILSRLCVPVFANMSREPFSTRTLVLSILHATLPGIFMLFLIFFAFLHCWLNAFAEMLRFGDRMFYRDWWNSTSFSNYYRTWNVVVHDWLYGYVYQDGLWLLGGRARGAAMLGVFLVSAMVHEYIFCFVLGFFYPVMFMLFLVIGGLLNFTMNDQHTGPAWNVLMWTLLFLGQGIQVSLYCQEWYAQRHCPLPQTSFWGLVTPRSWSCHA
Would you mind classing the entries by IC50? Ranges: bin 0 = under 20 nM, bin 1 = from 20 nM up to 40 nM, bin 2 = 40 nM and over

{"cpd.smiles": "CSc1cc(C)nc(C)c1NC(=O)N(Cc1ccc(Oc2ccc(F)cc2)cc1)C1CCCCCC1", "assay.target": "O-acyltransferase (Oryctolagus cuniculus, UniProt G1SFD9)", "classification": "bin 2"}
{"cpd.smiles": "CSc1cc(C)nc(SC)c1NC(=O)N(Cc1ccc(Oc2ccc(F)cc2)cc1)[C@H](C)c1ccccc1", "assay.target": "O-acyltransferase (Oryctolagus cuniculus, UniProt G1SFD9)", "classification": "bin 0"}
{"cpd.smiles": "Cc1cc(Cl)c(NC(=O)N(Cc2ccc(Oc3ccc(F)cc3)cc2)C2CCCCCC2)c(Cl)n1", "assay.target": "O-acyltransferase (Oryctolagus cuniculus, UniProt G1SFD9)", "classification": "bin 0"}
{"cpd.smiles": "CSc1cc(C)nc(SC)c1NC(=O)N(Cc1ccccc1)Cc1ccc(Oc2ccc(F)cc2)cc1", "assay.target": "O-acyltransferase (Oryctolagus cuniculus, UniProt G1SFD9)", "classification": "bin 0"}
{"cpd.smiles": "CCOCCN(Cc1ccc(Oc2ccc(F)cc2)cc1)C(=O)Nc1c(SC)cc(C)nc1SC", "assay.target": "O-acyltransferase (Oryctolagus cuniculus, UniProt G1SFD9)", "classification": "bin 1"}
{"cpd.smiles": "CSc1cc(C)nc(SC)c1NC(=O)N(CCc1ccccc1)Cc1ccc(Oc2ccc(F)cc2)cc1", "assay.target": "O-acyltransferase (Oryctolagus cuniculus, UniProt G1SFD9)", "classification": "bin 0"}
{"cpd.smiles": "COc1ccc(CN(Cc2ccc(Oc3ccc(F)cc3)cc2)C(=O)Nc2c(SC)cc(C)nc2SC)cc1", "assay.target": "O-acyltransferase (Oryctolagus cuniculus, UniProt G1SFD9)", "classification": "bin 1"}
{"cpd.smiles": "CSc1cc(C)nc(SC)c1NC(=O)N(Cc1ccc(Oc2ccc(F)cc2)cc1)C1CCOCC1", "assay.target": "O-acyltransferase (Oryctolagus cuniculus, UniProt G1SFD9)", "classification": "bin 2"}

====

tested on: Rattus norvegicus; assay: Percent reduction in cholesterol levels in rats at >0.1 mg/kg; assay type: functional
compounds and their reported Reduction
readout.label: Reduction

{"cpd.smiles": "Cc1cc(Cl)c(NC(=O)N(Cc2ccc(Oc3ccc(F)cc3)cc2)C2CCCCCC2)c(Cl)n1", "assay.target": "Rattus norvegicus", "endpoint.value": "38%"}
{"cpd.smiles": "Cc1cc(S(C)(=O)=O)c(NC(=O)N(Cc2ccc(Oc3ccc(F)cc3)cc2)C2CCCCCC2)c(Cl)n1", "assay.target": "Rattus norvegicus", "endpoint.value": "46%"}
{"cpd.smiles": "CCOCCN(Cc1ccc(Oc2ccc(F)cc2)cc1)C(=O)Nc1c(SC)cc(C)nc1SC", "assay.target": "Rattus norvegicus", "endpoint.value": "26%"}
{"cpd.smiles": "COc1ccc(CN(Cc2ccc(Oc3ccc(F)cc3)cc2)C(=O)Nc2c(SC)cc(C)nc2SC)cc1", "assay.target": "Rattus norvegicus", "endpoint.value": "24%"}

====

biological target: O-acyltransferase (Oryctolagus cuniculus); experiment: In vitro inhibitory activity against Acyl coenzyme A:cholesterol acyltransferase from rabbit intestinal microsomes; assay type: functional

{"cpd.smiles": "CSc1cc(C)nc(SC)c1NC(=O)N(Cc1ccc(Oc2ccc(F)cc2)cc1)Cc1c(C)cccc1C", "u": "nM", "IC50": 26}

====

target: O-acyltransferase (Oryctolagus cuniculus, UniProt G1SFD9); assay: In vitro inhibition of acyl coenzyme A:cholesterol acyltransferase (ACAT) from rabbit intestinal microsomes
Catalogue of IC50 values

{"cpd.smiles": "Cc1ccc(NC(=O)N(Cc2ccc(Oc3ccc(F)cc3)cc2)C2CCCCCC2)c(Cl)n1", "IC50 / µM": 0.019}
{"cpd.smiles": "CSc1cc(C)nc(S(C)(=O)=O)c1NC(=O)N(Cc1ccc(Oc2ccc(F)cc2)cc1)C1CCCCCC1", "IC50 / µM": 0.078}
{"cpd.smiles": "CSc1cc(C)nc(SC)c1NC(=O)N(Cc1cccc(Oc2ccc(F)cc2)c1)C1CCCCCC1", "IC50 / µM": 0.073}
{"cpd.smiles": "CSc1cc(C)nc(SC)c1NC(=O)N(Cc1ccc(Oc2ccc(F)cc2)cc1)[C@@H](C)c1ccccc1", "IC50 / µM": 0.019}
{"cpd.smiles": "CSc1cc(C)nc(SC)c1NC(=O)N(Cc1ccc(Oc2ccc(F)cc2)cc1)C(C)(C)c1ccccc1", "IC50 / µM": 0.024}
{"cpd.smiles": "COc1cc(C)nc(OC)c1NC(=O)N(Cc1ccc(Oc2ccc(F)cc2)cc1)C1CCCCCC1", "IC50 / µM": 0.033}
{"cpd.smiles": "Cc1cc(C)c(NC(=O)N(Cc2ccc(Oc3ccc(F)cc3)cc2)C2CCCCCC2)c(C)n1", "IC50 / µM": 0.062}
{"cpd.smiles": "Cc1cc(C)c(NC(=O)N(Cc2ccc(Oc3ccc(F)cc3)cc2)C2CCCCCC2)c(C)c1", "IC50 / µM": 0.025}
{"cpd.smiles": "CSc1cc(C)nc(SC)c1NC(=O)N(Cc1ccc(Oc2ccc(F)cc2)cc1)C1CCCCC1", "IC50 / µM": 0.023}
{"cpd.smiles": "CSc1cc(C)nc(Cl)c1NC(=O)N(Cc1ccc(Oc2ccc(F)cc2)cc1)C1CCCCCC1", "IC50 / µM": 0.046}
{"cpd.smiles": "CSc1cc(C)nc(SC)c1NC(=O)N(Cc1ccccc1)Cc1ccc(Oc2ccc(Br)cc2)cc1", "IC50 / µM": 0.01}
{"cpd.smiles": "CSc1cc(C)nc(SC)c1NC(=O)N(CCCc1ccccc1)Cc1ccc(Oc2ccc(F)cc2)cc1", "IC50 / µM": 0.028}
{"cpd.smiles": "COc1nc(C)cc(SC)c1NC(=O)N(Cc1ccc(Oc2ccc(F)cc2)cc1)C1CCCCCC1", "IC50 / µM": 0.029}
{"cpd.smiles": "CSc1nc(C)nc(SC)c1NC(=O)N(Cc1ccc(Oc2ccc(F)cc2)cc1)C1CCCCCC1", "IC50 / µM": 0.056}
{"cpd.smiles": "Cc1cc(S(C)(=O)=O)c(NC(=O)N(Cc2ccc(Oc3ccc(F)cc3)cc2)C2CCCCCC2)c(S(C)(=O)=O)n1", "IC50 / µM": 0.045}
{"cpd.smiles": "Cc1cc(S(C)(=O)=O)c(NC(=O)N(Cc2ccc(Oc3ccc(F)cc3)cc2)C2CCCCCC2)c(Cl)n1", "IC50 / µM": 0.03}
{"cpd.smiles": "CSc1nc(C)cc(Cl)c1NC(=O)N(Cc1ccc(Oc2ccc(F)cc2)cc1)C1CCCCCC1", "IC50 / µM": 0.012}
{"cpd.smiles": "CSc1cc(C)nc(SC)c1NC(=O)N(Cc1ccc(Oc2ccc(Br)cc2)cc1)C1CCCCCC1", "IC50 / µM": 0.028}
